B1: HESX1 (parent)
chain: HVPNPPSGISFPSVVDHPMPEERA

Variants of: B1
Assay Overview: protein stability index of a GFP-peptide fusion (GPS, HEK-293T) (PSI 1-6); higher = more stable;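 note: lentivirally expressed fusions sorted by FACS into six bins by GFP to DsRed ratio, PSI derived from sequencing read proportions per bin multiplied by bin number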
Condition Summary: c terminus: a fixed tail appended
Think of 3 as a floor: if protein stability index stands on it or above, it is fulfilled; beneath it, not fulfilled.

Sequence Data	Cat
HVPNPPSGISFPSPVDHPMPEERA [V14P]	fulfilled

Ask: Assess whether reported protein stability index for HVPNPPSGISFPSVVIHPMPEERA [D16I] sits at 3 or higher.
Reply: not fulfilled

Ask: Given VVPNPPSGISFPSVVDHPMPEERA [H1V] , state whether its protein stability index is at least 3.
Reply: fulfilled

Ask: Evaluate HVPNPPSGISFPSVVDHPMIEERA [P20I] : protein stability index at minimum 3?
Reply: not fulfilled

Ask: Has HVPNPPSGISFPSVVDHPMPEENA [R23N] a recorded protein stability index greater than or equal to 3?
Reply: not fulfilled

Ask: Check this variant for protein stability index at or above 3: HVPNPPSGISFPSVVDHPMHEERA [P20H]
Reply: not fulfilled

Ask: Is the recorded value of protein stability index equal to or greater than 3 for this variant? HVPNHPSGISFPSVVDHPMPEERA [P5H]
Reply: not fulfilled

Ask: Test whether the variant HVPNPPSGISFHSVVDHPMPEERA [P12H] records protein stability index of 3 or higher.
Reply: fulfilled

Ask: Determine whether this variant has protein stability index no lower than 3: HVPNPPSGISFPSVVDHPMPEERQ [A24Q]
Reply: not fulfilled

Ask: Could you tell me if the measured protein stability index of HVPNPPSGISFPSVVDRPMPEERA [H17R] reaches 3 or more?
Reply: not fulfilled

Ask: For this variant, is measured protein stability index 3 or higher? HVPNPPSGISTPSVVDHPMPEERA [F11T]
Reply: fulfilled

Ask: Is it the case that HVPNPPSGISFPSVVDHPMPEDRA [E22D] has protein stability index reaching or exceeding 3?
Reply: not fulfilled

Ask: State whether the measured protein stability index reaches 3, counting equality as reaching it, for HVPNPPSGIAFPSVVDHPMPEERA [S10A]
Reply: not fulfilled

Ask: For this variant, is measured protein stability index 3 or higher? HVPNPPSLISFPSVVDHPMPEERA [G8L]
Reply: fulfilled

Ask: I'd appreciate it if you could say whether HVPNPPSGISFPSVMDHPMPEERA [V15M] has protein stability index at least equal to 3.
Reply: fulfilled

Ask: Kindly determine if protein stability index recorded for HVPNPPSGLSFPSVVDHPMPEERA [I9L] is above or exactly 3.
Reply: not fulfilled

Ask: Hi team, for HHPNPPSGISFPSVVDHPMPEERA [V2H] , is the recorded protein stability index at or above 3?
Reply: fulfilled

Ask: Hi, just wondering whether HVPNPPSGISLPSVVDHPMPEERA [F11L] shows protein stability index of 3 or higher.
Reply: fulfilled

Ask: Form field: protein stability index at least 3? Entry: HVPNEPSGISFPSVVDHPMPEERA [P5E]
Reply: fulfilled

Ask: Determine whether measured protein stability index meets or exceeds 3 for HVPNPPSGISVPSVVDHPMPEERA [F11V]
Reply: fulfilled

Values from the supplement of paper PMC10567573
